- system tested: HiBit-BRG1 fusion protein in stable HeLa cell line expressing HiBit-BRG1 and LgBit (Homo sapiens, UniProt P51532)
- Construct: expressed in transfected cells
- Sequence (P51532 whole entry, the tested form may be a part): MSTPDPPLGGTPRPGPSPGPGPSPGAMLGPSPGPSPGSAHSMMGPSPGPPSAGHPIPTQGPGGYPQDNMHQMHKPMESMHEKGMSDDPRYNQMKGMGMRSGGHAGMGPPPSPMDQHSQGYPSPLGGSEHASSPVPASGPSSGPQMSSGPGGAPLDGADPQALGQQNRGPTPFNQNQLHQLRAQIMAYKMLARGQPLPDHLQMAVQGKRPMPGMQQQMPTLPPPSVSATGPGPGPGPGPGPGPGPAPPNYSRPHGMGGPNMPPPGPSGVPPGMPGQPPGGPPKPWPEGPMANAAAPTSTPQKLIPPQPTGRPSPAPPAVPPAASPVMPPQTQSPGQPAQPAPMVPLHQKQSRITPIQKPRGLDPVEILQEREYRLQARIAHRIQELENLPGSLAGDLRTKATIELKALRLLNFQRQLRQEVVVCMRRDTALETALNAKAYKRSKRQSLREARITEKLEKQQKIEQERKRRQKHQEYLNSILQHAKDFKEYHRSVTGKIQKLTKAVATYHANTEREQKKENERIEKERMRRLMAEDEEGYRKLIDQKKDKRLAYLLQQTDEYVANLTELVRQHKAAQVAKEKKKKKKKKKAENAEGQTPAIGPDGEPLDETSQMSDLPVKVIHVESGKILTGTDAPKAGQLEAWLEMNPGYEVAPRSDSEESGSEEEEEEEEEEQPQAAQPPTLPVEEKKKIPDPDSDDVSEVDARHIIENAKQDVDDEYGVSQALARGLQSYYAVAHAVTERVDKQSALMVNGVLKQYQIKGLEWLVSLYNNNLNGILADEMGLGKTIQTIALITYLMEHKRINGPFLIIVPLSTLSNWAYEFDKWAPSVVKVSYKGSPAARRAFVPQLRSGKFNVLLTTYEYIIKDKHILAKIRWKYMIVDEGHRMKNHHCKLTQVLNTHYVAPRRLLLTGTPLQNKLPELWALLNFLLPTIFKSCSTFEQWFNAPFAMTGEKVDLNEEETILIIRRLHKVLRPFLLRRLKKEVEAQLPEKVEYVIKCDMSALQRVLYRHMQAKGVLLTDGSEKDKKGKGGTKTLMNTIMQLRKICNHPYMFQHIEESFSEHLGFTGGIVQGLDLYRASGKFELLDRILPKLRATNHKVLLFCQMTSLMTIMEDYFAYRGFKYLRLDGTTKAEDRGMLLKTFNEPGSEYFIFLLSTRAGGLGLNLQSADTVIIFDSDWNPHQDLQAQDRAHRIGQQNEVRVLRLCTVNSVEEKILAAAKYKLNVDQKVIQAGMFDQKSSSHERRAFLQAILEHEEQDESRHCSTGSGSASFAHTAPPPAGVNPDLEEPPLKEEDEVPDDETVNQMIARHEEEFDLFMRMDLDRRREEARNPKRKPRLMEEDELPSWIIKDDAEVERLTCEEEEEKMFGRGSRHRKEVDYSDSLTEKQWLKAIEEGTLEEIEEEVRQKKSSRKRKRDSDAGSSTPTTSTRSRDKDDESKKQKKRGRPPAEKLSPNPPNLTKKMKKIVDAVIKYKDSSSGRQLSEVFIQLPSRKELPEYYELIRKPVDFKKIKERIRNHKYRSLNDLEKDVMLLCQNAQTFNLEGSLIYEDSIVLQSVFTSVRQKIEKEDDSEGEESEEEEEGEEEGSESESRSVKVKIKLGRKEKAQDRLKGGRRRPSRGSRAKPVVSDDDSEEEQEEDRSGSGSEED
- run description: HiBiT-BRG1 cell-based degradation assay (Nano-Glo HiBiT, 24 h)
- condition context: HeLa HiBit-BRG1/LgBit cells, read-out: BRMG1 HiBit Degradation IC50
Here, each record is paired with measured DC50 data.
result type: DC50

{"compound": "Cc1ncsc1-c1ccc([C@H](C)NC(=O)[C@@H]2C[C@@H](O)CN2C(=O)[C@@H](c2cc(N3CCOC4(CCN(c5ccc6cc(-c7ccccc7O)nnc6c5)CC4)C3)no2)C(C)C)cc1", "result type": "DC50", "measured": "< 10 nM"}
{"compound": "COC[C@H]1CN(c2cc([C@H](C(=O)N3C[C@H](O)C[C@H]3C(=O)N[C@@H](C)c3ccc(-c4scnc4C)cc3)C(C)C)on2)CCN1c1ccc2nnc(-c3ccccc3O)cc2c1", "result type": "DC50", "measured": "> 10 nM"}
{"compound": "Cc1ncsc1-c1ccc([C@H](C)NC(=O)[C@@H]2C[C@@H](O)CN2C(=O)[C@@H](c2cc(N3CC4(C3)CN(c3cc5nnc(-c6ccccc6O)cc5cc3OC3CC3)C4)no2)C(C)C)cc1", "result type": "DC50", "measured": "< 10 nM"}
{"compound": "Cc1ncsc1-c1ccc([C@@H](C)NC(=O)[C@H]2C[C@H](O)CN2C(=O)[C@H](C(C)C)n2cc(N3CC4(CN(c5ccc6nnc(-c7ccccc7O)cc6c5)C4)C3)cn2)cc1", "result type": "DC50", "measured": "> 10 nM"}
{"compound": "Cc1ncsc1-c1ccc([C@H](C)NC(=O)[C@@H]2C[C@@H](O)CN2C(=O)C(C(C)C)n2cc(N3CCN(CC4CCN(c5ccc6nnc(-c7ccccc7O)cc6c5)CC4)CC3)nn2)cc1 (stereo partly shown)", "result type": "DC50", "measured": "< 10 nM"}
{"compound": "Cc1ncsc1-c1ccc([C@H](C)NC(=O)[C@@H]2C[C@@H](O)CN2C(=O)C(C(C)C)n2cc(N3CCN(CC4CCCN(c5ccc6nnc(-c7ccccc7O)cc6c5)C4)CC3)nn2)cc1 (stereo partly shown)", "result type": "DC50", "measured": "< 10 nM"}
{"compound": "Cc1ncsc1-c1ccc([C@H](C)NC(=O)[C@@H]2C[C@@H](O)CN2C(=O)C(C(C)C)n2cc(N3CCC4(CCN(c5ccc6cc(-c7ccccc7O)nnc6c5)CC4)C3)nn2)cc1 (stereo partly shown)", "result type": "DC50", "measured": "< 10 nM"}
{"compound": "Cc1ncsc1-c1ccc([C@H](C)NC(=O)[C@@H]2C[C@@H](O)CN2C(=O)[C@@H](c2cc(N3C[C@]4(C)CN(c5ccc6cc(-c7ccccc7O)nnc6c5)C[C@]4(C)C3)no2)C(C)C)cc1", "result type": "DC50", "measured": "> 10 nM"}
{"compound": "Cc1ncsc1-c1ccc([C@H](C)NC(=O)[C@@H]2C[C@@H](O)CN2C(=O)[C@@H](c2cc(N3CC[C@@]4(CCN(c5ccc6cc(-c7ccccc7O)nnc6c5)C4)C3)no2)C(C)C)cc1", "result type": "DC50", "measured": "< 10 nM"}
{"compound": "Cc1ncsc1-c1ccc([C@H](C)NC(=O)[C@@H]2C[C@@H](O)CN2C(=O)[C@H](C(C)C)n2cc(N3CCN4CCN(c5ccc6cc(-c7ccccc7O)nnc6c5)C[C@H]4C3)nn2)cc1", "result type": "DC50", "measured": "< 10 nM"}

----------
- system tested: HiBit-BRG1 fusion protein in stable HeLa cell line expressing HiBit-BRG1 and LgBit (Homo sapiens)
- Construct: expressed in transfected cells
- run description: HiBiT-BRG1 cell-based degradation assay (Nano-Glo HiBiT, 24 h)
- condition context: HeLa HiBit-BRG1/LgBit cells, top dose 30 μM, read-out: BRG1 HiBit Degradation Maximum (%)
# reported Dmax; entries follow
result type: Dmax

{"molecule": "Cc1ncsc1-c1ccc([C@H](C)NC(=O)[C@@H]2C[C@@H](O)CN2C(=O)[C@@H](c2cc(N3CCC4(CC[C@H](c5ccc6cc(-c7ccccc7O)nnc6c5)C4)CC3)no2)C(C)C)cc1", "measured": "> 75%"}
{"molecule": "Cc1ncsc1-c1ccc([C@H](C)NC(=O)[C@@H]2C[C@@H](O)CN2C(=O)[C@@H](c2cc(N3CCOC4(CN(c5ccc6nnc(-c7ccccc7O)cc6c5)C4)C3)no2)C(C)C)cc1", "measured": "> 75%"}
{"molecule": "Cc1ncsc1-c1ccc([C@H](C)NC(=O)[C@@H]2C[C@@H](O)CN2C(=O)C(c2cc(-c3cnc(N4CCC5(CC4)CC(c4ccc6cc(-c7ccccc7O)nnc6c4)C5)nc3)no2)C(C)C)cc1 (mixture of isomers)", "measured": "> 75%"}

----------
- system tested: HiBit-BRG1 fusion protein in stable HeLa cell line expressing HiBit-BRG1 and LgBit (Homo sapiens)
- Construct: expressed in transfected cells
- run description: HiBiT-BRG1 cell-based degradation assay (Nano-Glo HiBiT, 24 h)
- condition context: HeLa HiBit-BRG1/LgBit cells, top dose 30 μM, read-out: BRG1 HiBit Degradation Maximum (%)

{"smiles input": "Cc1ncsc1-c1ccc([C@H](C)NC(=O)[C@@H]2C[C@@H](O)CN2C(=O)[C@H](c2cc(-c3cnc(N4CC(c5ccc6nnc(-c7ccccc7O)cc6c5)C4)nc3)no2)C(C)C)cc1", "Dmax": "< 50%"}
{"smiles input": "C#Cc1ccc([C@H](C)NC(=O)[C@@H]2C[C@@H](O)CN2C(=O)[C@@H](c2cc(N3CC4(CN(c5ccc6cc(-c7ccccc7O)nnc6c5)C4)C3)no2)C(C)C)c(Cl)c1", "Dmax": "< 50%"}
{"smiles input": "Cc1ncsc1-c1ccc([C@H](C)NC(=O)[C@@H]2C[C@@H](O)CN2C(=O)[C@H](c2cc(-c3cnc(N4CC(c5ccc6cc(-c7ccccc7O)nnc6c5)C4)nc3)no2)C(C)C)cc1", "Dmax": "< 50%"}
{"smiles input": "Cc1ncsc1-c1ccc([C@H](C)NC(=O)[C@@H]2C[C@@H](O)CN2C(=O)[C@@H](c2cc(N3CCC(N4CC5(CN(Cc6ccc7nnc(-c8ccccc8O)cc7c6)C5)C4)CC3)no2)C(C)C)cc1", "Dmax": "> 75%"}
{"smiles input": "Cc1ncsc1-c1ccc([C@H](C)NC(=O)[C@@H]2C[C@@H](O)CN2C(=O)[C@@H](c2cc(N3CCC4(CC3)CC(c3ccc5cc(-c6cc(F)cc(F)c6O)nnc5c3)C4)no2)C(C)C)cc1", "Dmax": "< 50%"}

----------
- system tested: HiBiT-BRM fusion protein in stable HeLa cell line (Homo sapiens)
- Construct: expressed in transfected cells
- Sequence (P51531 whole entry, the tested form may be a part): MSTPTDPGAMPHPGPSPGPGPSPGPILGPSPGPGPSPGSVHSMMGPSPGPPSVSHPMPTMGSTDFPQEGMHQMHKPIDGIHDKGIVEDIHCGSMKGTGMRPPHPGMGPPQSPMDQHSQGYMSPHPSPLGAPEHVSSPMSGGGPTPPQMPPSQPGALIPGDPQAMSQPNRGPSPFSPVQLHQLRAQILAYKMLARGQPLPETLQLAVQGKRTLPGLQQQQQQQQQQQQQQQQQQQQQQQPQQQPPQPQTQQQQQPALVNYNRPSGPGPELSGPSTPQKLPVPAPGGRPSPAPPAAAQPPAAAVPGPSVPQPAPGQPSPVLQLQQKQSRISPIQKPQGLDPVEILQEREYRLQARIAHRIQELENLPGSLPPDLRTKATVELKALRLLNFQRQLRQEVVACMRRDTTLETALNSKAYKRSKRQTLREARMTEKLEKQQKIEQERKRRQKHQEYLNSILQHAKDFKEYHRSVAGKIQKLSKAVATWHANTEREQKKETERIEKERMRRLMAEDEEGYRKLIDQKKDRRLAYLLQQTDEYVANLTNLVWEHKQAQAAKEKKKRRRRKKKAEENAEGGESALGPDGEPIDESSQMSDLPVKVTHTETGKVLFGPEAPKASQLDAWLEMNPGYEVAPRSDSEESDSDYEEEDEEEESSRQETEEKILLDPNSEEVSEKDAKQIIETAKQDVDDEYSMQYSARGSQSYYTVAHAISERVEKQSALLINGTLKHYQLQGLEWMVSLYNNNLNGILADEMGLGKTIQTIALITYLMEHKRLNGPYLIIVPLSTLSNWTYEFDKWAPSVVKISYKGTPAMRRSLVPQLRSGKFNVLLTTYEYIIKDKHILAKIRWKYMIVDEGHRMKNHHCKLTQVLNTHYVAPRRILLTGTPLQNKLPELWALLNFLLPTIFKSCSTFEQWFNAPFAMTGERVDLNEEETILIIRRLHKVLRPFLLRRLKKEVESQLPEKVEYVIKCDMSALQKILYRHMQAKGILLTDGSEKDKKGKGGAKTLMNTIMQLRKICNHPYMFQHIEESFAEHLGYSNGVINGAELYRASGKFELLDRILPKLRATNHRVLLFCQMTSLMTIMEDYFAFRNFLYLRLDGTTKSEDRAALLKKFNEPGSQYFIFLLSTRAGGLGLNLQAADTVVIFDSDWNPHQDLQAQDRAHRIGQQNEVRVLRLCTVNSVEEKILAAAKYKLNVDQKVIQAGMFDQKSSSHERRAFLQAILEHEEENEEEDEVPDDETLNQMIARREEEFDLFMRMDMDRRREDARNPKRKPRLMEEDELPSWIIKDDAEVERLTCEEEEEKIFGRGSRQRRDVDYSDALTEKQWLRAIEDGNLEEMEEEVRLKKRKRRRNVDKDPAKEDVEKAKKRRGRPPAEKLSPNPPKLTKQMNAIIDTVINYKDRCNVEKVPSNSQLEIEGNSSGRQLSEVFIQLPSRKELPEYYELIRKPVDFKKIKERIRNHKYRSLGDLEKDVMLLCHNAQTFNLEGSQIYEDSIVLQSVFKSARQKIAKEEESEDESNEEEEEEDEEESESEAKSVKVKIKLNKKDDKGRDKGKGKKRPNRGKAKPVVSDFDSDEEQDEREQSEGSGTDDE
- run description: HiBiT-BRM cell-based degradation assay (Nano-Glo HiBiT Lytic Detection, 24 h)
- Parameters: scale not given here
- condition context: HeLa HiBiT-BRM cells, read-out: BRM HiBit Degradation IC50

{"molecule": "C#Cc1ccc(CNC(=O)[C@@H]2C[C@@H](O)CN2C(=O)[C@H](C(C)C)n2cc(N3CC4(CN(c5ccc6cc(-c7ccccc7O)nnc6c5)C4)C3)nn2)c(OCCCOC)c1 [Compound 242]", "system tested": "HiBiT-BRM fusion protein in stable HeLa cell line (Homo sapiens)", "DC50": "< 10 nM"}
{"molecule": "Cc1ncsc1-c1ccc([C@H](C)NC(=O)[C@@H]2C[C@@H](O)CN2C(=O)C(C(C)C)n2cc(N3CCCC4(CCN(c5ccc6cc(-c7ccccc7O)nnc6c5)CC4)C3)nn2)cc1 (stereo partly drawn) [Compound 251]", "system tested": "HiBiT-BRM fusion protein in stable HeLa cell line (Homo sapiens)", "DC50": "< 10 nM"}
{"molecule": "Cc1ncsc1-c1ccc([C@H](C)NC(=O)[C@@H]2C[C@@H](O)CN2C(=O)[C@H](c2cc(N3CC4(CC(c5ccc6cc(-c7ccccc7O)nnc6c5)C4)C3)no2)C(C)C)cc1 [Compound 33]", "system tested": "HiBiT-BRM fusion protein in stable HeLa cell line (Homo sapiens)", "DC50": "> 100 nM"}

----------
Overview of reported DC50 across a group of compounds:
- system tested: HiBiT-BRM fusion protein in stable HeLa cell line (Homo sapiens)
- Construct: expressed in transfected cells
- run description: HiBiT-BRM cell-based degradation assay (Nano-Glo HiBiT Lytic Detection, 24 h)
- Set-up: scale not given here
- condition context: HeLa HiBiT-BRM cells, read-out: BRM HiBit Degradation IC50

{"compound": "Cc1ncsc1-c1ccc([C@H](C)NC(=O)[C@@H]2C[C@@H](O)CN2C(=O)[C@@H](c2cc(N3CCC4(CC3)CN(c3ccc5nnc(-c6ccccc6O)cc5c3)CCN4C)no2)C(C)C)cc1", "DC50": "< 10 nM"}
{"compound": "Cc1ncsc1-c1ccc([C@H](C)NC(=O)[C@@H]2C[C@@H](O)CN2C(=O)[C@@H](c2cc(N3CCC(N4CC5(CN(Cc6ccc7nnc(-c8ccccc8O)cc7c6)C5)C4)CC3)no2)C(C)C)cc1", "DC50": "> 100 nM"}
{"compound": "Cc1ncsc1-c1ccc([C@H](C)NC(=O)[C@@H]2C[C@@H](O)CN2C(=O)[C@@H](c2cc(N3CCC4(CC3)CN(c3ccc5nnc(-c6ccccc6O)cc5c3)C4)no2)C(C)C)cc1", "DC50": "< 10 nM"}
{"compound": "Cc1ncsc1-c1ccc([C@H](C)NC(=O)[C@@H]2C[C@@H](O)CN2C(=O)[C@@H](c2cc(N3CC4(CC(c5cc6nnc(-c7ccccc7O)cc6cc5C#N)C4)C3)no2)C(C)C)cc1", "DC50": "< 10 nM"}
{"compound": "Cc1ncsc1-c1ccc([C@H](C)NC(=O)[C@@H]2C[C@@H](O)CN2C(=O)[C@@H](c2cc(N3CCC4(CC[C@@H](c5ccc6nnc(-c7ccccc7O)cc6c5)C4)CC3)no2)C(C)C)cc1", "DC50": "< 10 nM"}
{"compound": "Cc1ncsc1-c1ccc([C@H](C)NC(=O)[C@@H]2C[C@@H](O)CN2C(=O)[C@@H](c2cc(N3CCC4(CC3)CCN(c3ccc5cc(-c6ccccc6O)nnc5c3)C4=O)no2)C(C)C)cc1", "DC50": "< 10 nM"}
{"compound": "Cc1ncsc1-c1ccc([C@H](C)NC(=O)[C@@H]2C[C@@H](O)CN2C(=O)[C@@H](c2cc(N3C[C@]4(C)CN(c5ccc6cc(-c7ccccc7O)nnc6c5)C[C@]4(C)C3)no2)C(C)C)cc1", "DC50": "< 10 nM"}
{"compound": "Cc1ncsc1-c1ccc([C@H](C)NC(=O)[C@@H]2C[C@@H](O)CN2C(=O)[C@@H](c2cc(N3CCOC4(CCN(c5ccc6cc(-c7ccccc7O)nnc6c5)CC4)C3)no2)C(C)C)cc1", "DC50": "< 10 nM"}
{"compound": "Cc1ncsc1-c1ccc([C@H](C)NC(=O)[C@@H]2C[C@@H](O)CN2C(=O)[C@H](c2cc(-c3cnc(N4CC(c5cc(F)c6cc(-c7ccccc7O)nnc6c5)C4)nc3)no2)C(C)C)cc1", "DC50": "> 100 nM"}
{"compound": "Cc1ncsc1-c1ccc([C@H](C)NC(=O)[C@@H]2C[C@@H](O)CN2C(=O)C(C(C)C)n2cc(N3CCN(CC4CCCN(c5ccc6nnc(-c7ccccc7O)cc6c5)C4)CC3)nn2)cc1 (stereo partly shown)", "DC50": "< 10 nM"}
